Biological target: T1, OX40-ECD-hFc (human, UniProt P43489 29-214)
T1 construct: extracellular domain; Coated on the ELISA plate; also called OX40-hFc protein; not shown: human Fc (hFc)
T1 sequence (looked up): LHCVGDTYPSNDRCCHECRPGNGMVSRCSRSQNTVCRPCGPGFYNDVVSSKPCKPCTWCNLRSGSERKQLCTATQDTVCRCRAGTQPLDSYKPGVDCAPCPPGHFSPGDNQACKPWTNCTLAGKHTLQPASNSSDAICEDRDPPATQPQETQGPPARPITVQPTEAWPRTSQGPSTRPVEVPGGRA
Assay: ELISA, OX40-ECD-hFc coated on plate
The label TRUE is reserved for EC50 strictly under 0.02 µg/mL; FALSE covers values equal to or above it.

- Binder: "murine OX40 hybridoma antibody 177G5 (antibody, V domains shown, Purified murine monoclonal hybridoma antibody) VH: EVQLVESGGGLVKPGGSLKLSCAASGFTFSDFYMYWVRQTPEKRLEWVATISDGGSYTYYPDIVKGRFTISRDNAKNNLNLQMSSLKSDDTAMYYCTTKNGNHIGFAYWGQGTLVTVSA VL: DIQMTQSPASLSVSVGETVTITCRASENIYSNLAWYQQKQGKSPQLLVYAATNLADGVPSRFSGSGSGTQYSLKINSLQSEDFGSYYCQHFWGIPWTFGGGTKLEIKR"
  Qualitative Label: "FALSE"
- Binder: "murine OX40 hybridoma antibody 1G2 (antibody, V domains shown, Purified murine monoclonal hybridoma antibody) VH: EVQLQQSGPDLVKPGASVKMSCKASGYRFTSYVMHWVKQRPGQGLEWIGYINPYNDNTRYNEKFKGKATLTSDKSSSTAYMELSSLTSEDSAVYYCAAYYGDYVYLDYWGQGTTLTVSS VL: DIQMTQTTSSLSASLGDRVTISCRASQDINNYLNWYQQKPDGTVKLLIYYTSRLHSGVPSRFSGSGSGTDYSLIISNLEQEDIATYFCQQGNTLPWTFGGGTKLEIKR"
  Qualitative Label: "TRUE"
- Binder: "murine OX40 hybridoma antibody 119H2 (antibody, V domains shown, Purified murine monoclonal hybridoma antibody) VH: EVKLDATGGGLVQPGRPMKLSCVASGFTFSDYWMNWVRQSPEKGLEWVAQIRNKPYNYETFYSDSVKGRFTISRDDSKSSVYLQMNNLRAEDMGIYYCTGYFDYWGQGTTLTVSS VL: DIVLTQSPASLAVSLGQRATISCRASQSVSTSSYSYMHWYQQKPGQPPKLLIKYASNLESGVPARFSGSGSGTDFTLNIHPVEEEDTATYYCQHSWGIPPTFGGGTKLEIKR"
  Qualitative Label: "FALSE"
- Binder: "murine OX40 hybridoma antibody 3G4 (antibody, V domains shown, Purified murine monoclonal hybridoma antibody) VH: EVQLQQSGPELVKPGTSVKMSCKASGYRFTSYVLHWVRRKPGQGLEWIGYVNPFNDNTRYNEKFKAKATLTSDKSSSTAYMDLVSLTSEDSAVYYCSRGLYDYSYVMDYWGQGTSVTVSS VL: DIQMTQTTSSLSASLGDGVTITCQASQDIRNYLNWYQQKPDGTIKLLIYHTSKLHSGVPSRFSGGGSGTDFSLTISNLDQEDIATYFCQQSQTLPYTFGGGTKLEIKR"
  Qualitative Label: "TRUE"
- Binder: "murine OX40 hybridoma antibody 118A10 (antibody, V domains shown, Purified murine monoclonal hybridoma antibody) VH: EVKLDETGGGLVQPGRPMKLSCVASGFTFSDYWLNWVRQSPEKGLEWVAQIRNKPYHYETFYSESVKGRFTISRDDSKSSVYLQMNDLRGEDTGIYYCTGYFDYWGQGTTLTVSS VL: DIVLTQSPASLTISLGQRATISCRASQSVSTSTYSYIHWYQQKPGQPPRLLIKYASNLESGVPARFSGSGSGTDFTLNIHPVEEEDTATYYCQHSWGIPPTFGGGTKLEIKR"
  Qualitative Label: "FALSE"
